Tested on: PPARg homodimer (NR concentration 180 nM)
Experiment: PBM binding z-score (relative to random genomic background probes); higher = stronger binding; sequences stand for … in GC…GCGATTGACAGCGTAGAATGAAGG
// n strictly below 2 in PBM binding z-score; y otherwise

- CGTCCAAGGTCAGCAGGTCAGCGAAAGCGACGTG: y
- GCTGCTAGGTCAACTAATGGTCAGCTAAAGCTCG: n
- CAAACTAGGTCACCGGTAGGTCAAAGTCCGCATG: y
- AGAATGAGGTTACCAAAGATCAGGCAAACGCTTG: n
- CTCGAAAGGTCGTGATCAGGTGAGTATACCAAAC: y
- AGTCAACGTTCAGGACGAGGTAACGTAAAGCACG: n
- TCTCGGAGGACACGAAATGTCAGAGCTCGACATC: n
- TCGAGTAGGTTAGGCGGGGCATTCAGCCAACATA: n
- CAAACTAGGTCAGGAGGTCAAAGTCCGCTTCCCG: y
- CCTAGGAGGCCAATCTGGGTCACTCAAGGCTTGA: n
- ATCTCTATGTAAAAGTTCAGTGAATCCCGAGGAT: n
- CCTAGTTGGTCAGGAGGTCACACACCGGATATGA: y
- TCATATAGGTAAACGGGTGAAAGTCCGTAAGTTA: n
- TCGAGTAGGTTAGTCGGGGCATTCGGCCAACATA: n
- CCGACTTGGGCAAGGTTACCATAACGCACAGCCA: n
- ACTACAGGGTCATCGTAGGCCAGAGTACGCACAG: n
- CGAACTAGGTCAGAACAGGACACTGAAGGATGAT: n
- GCTCGCAGGCCATTTGGGTCACTCAATGACGGGC: n
- ATATGTAGGTTACATCCGGGTCATTCAAGCTATG: y
- ATCTCTAGGTAACAACTTCAGTGAAAGAGAGGAC: n
- CCGACTGGGGCAAGGGTTACCATACTCAGTACGA: n
- CGAACTAGGTCAAGCACAGTGAATCTCCGCACGC: y
- CCTATTAGTTGACCTTAAGGGCAACCGAAGCTCG: y
- ATCTCTAGGAAAAAGTTCAGTGAATCCCGAGGAT: n
- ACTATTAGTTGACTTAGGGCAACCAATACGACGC: n
- TTACCAAGCTGAAGGTCGTTGATCCCTCTGTAGA: n
